target-or-test-system: T1, PUF4 RNA-binding domain (Saccharomyces cerevisiae, UniProt P25339 537-888)
T1 sequence: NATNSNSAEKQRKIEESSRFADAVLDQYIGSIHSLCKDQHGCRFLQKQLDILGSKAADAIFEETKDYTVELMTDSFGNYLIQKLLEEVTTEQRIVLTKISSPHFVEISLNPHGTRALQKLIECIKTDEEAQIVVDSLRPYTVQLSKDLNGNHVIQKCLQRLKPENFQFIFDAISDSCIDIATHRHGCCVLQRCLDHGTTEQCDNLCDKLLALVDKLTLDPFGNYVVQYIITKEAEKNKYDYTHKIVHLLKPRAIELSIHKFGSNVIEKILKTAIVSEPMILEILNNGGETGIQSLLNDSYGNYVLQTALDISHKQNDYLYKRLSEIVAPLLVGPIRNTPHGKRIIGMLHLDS
assay-procedure: Mg; RNA-MaP; 20 mM Na-HEPES pH 7.4, 30 mM KOAc, 0.75 mM MgCl2, 0.1% Tween-20, 5% glycerol, 0.1 mg/mL BSA, 2 mM DTT; 25 C; 0.0125-409.6 nM protein
measurement-context: tags: N-His6-TEV cleaved; C-SNAP kept, Cy3B-labelled; label: tethered on chip by stalled RNA polymerase
quantity-measured: pKd
// pKd is dimensionless: -log10 of concentration (M)

Some binders with known pKd results, for comparison:
binder	quantity-measured	quantitative-result
Ic_S4_P4E.1_K4.1_C4.1_H4.1_A4.1_[T5A]_[T7C]_F4.1_[T8C]_[A9G]_T4.1 (ssRNA) RNA: UUUGACAACUGAUCGUUCUUUCUUGUAAACCGUUCUUUCUCGAUCAGUUGUCUUU	pKd	6.03
UCUCUUCGUAUAUUUUCUCUU (ssRNA) [Ib_S1_P4E.1_K4.1_C4.1_H4.1_[T1C]_A4.1_F4.1_[A9T]_T4.1]	pKd	5.85
Ic_S4_P4E.1_K4.1_C4.1_H4.1_A4.1_[A6T]_[T7G]_F4.1_[T8G]_[A9T]_T4.1 (ssRNA) RNA: UUUGACAACUGAUCGUUCUUUCUUGUAUUGGUUUCUUUCUCGAUCAGUUGUCUUU	pKd	5.88
UCUCUUUGUAAUUGGUCUCUU (ssRNA) [Ic_S1_P4E.1_K4.1_C4.1_H4.1_A4.1_[T5A]_[A6T]_F4.1_[T8G]_[A9G]_T4.1]	pKd	5.73
Ic_S4_P5E.1_K5.1_C5.1_H5.1_A5.1_[T5G]_[A7C]_F5.1_[T9C]_[A10G]_T5.1 (ssRNA) RNA: UUUGACAACUGAUCGUUCUUUCUUGUAGUCUCGUUCUUUCUCGAUCAGUUGUCUUU	pKd	6.37
Ie_S2_P3E.2_K3.1_C3.2_H3.1_[+2TTC]_A3.1_F3.1_T3.2 (ssRNA) RNA: UUUGAUUAAUAUGAUAUCGUUCUUUCUCUUGUUCUAUAUAUAUUCUUUCUCGAUAUCAUAUUAAUCUUU	pKd	8.21
Ic_S2_P4E.1_K4.1_C4.1_H4.1_A4.1_[T7C]_F4.1_[T8A]_[A9C]_T4.1 (ssRNA) RNA: UUUGAUUAAUAUGAUAUCGUUCUUUCUUGUAUACACUUCUUUCUCGAUAUCAUAUUAAUCUUU	pKd	7.22
Ib_S4_P3E.1_K3.1_C3.1_H3.1_A3.1_F3.1_[T7C]_[A8C]_T3.1 (ssRNA) RNA: UUUGACAACUGAUCGUUCUUUCUUGUAUACCUUCUUUCUCGAUCAGUUGUCUUU	pKd	7.54

In: May I ask what pKd has been recorded for Ib_S2_P5E.1_K5.1_C5.1_H5.1_[T3C]_A5.1_F5.1_[T8C]_T5.1 (ssRNA) RNA: UUUGAUUAAUAUGAUAUCGUUCUUUCUUGCAUUACUAUUCUUUCUCGAUAUCAUAUUAAUCUUU ?
Out: 6.25

In: GET /values?readout=pKd&item= Id_ii_S2_P5E.4_K5.3_C5.2_[C-2G]_H5.3_A5.1_F5.1_T5.2_[T11C]_[A12C] (ssRNA) RNA: UUUGAUUAAUAUGAUAUCGUUCUUUCUGUACACUUAUUACCUUCUUUCUCGAUAUCAUAUUAAUCUUU
Out: 8.52

In: GET /values?readout=pKd&item= UCUCUUUGUACUUCGUUCUCUU (ssRNA) [Ic_S1_P5E.1_K5.1_C5.1_H5.1_A5.1_[T5C]_[A7T]_F5.1_[T8C]_[T9G]_[A10T]_T5.1]
Out: 6.45

In: Report pKd for Ic_S4_P3E.1_K3.1_C3.1_H3.1_A3.1_[T5C]_[A6T]_F3.1_T3.1 (ssRNA) RNA: UUUGACAACUGAUCGUUCUUUCUUGUACUUAUUCUUUCUCGAUCAGUUGUCUUU please.
Out: 7.78
